Would you kindly list inhibition for each of these compounds?
Tested on: transactivating tegument protein VP16 (Human herpesvirus 1), Gal4-VP16 luciferase reporter
Assay: VP16 transactivation inhibitors, counter-screen for SRC3 inhibitor project, cell-based, luminescence, high throughput (AID 588794)
Details: mammalian cells, VP16-driven luciferase reporter luminescence; at 3.6 µM; active compounds read high
Calls of active or inactive are those of the source. No stated cut-off is given here; in the data, active means inhibition above about 30%; inactive means the rest.

See these solved cases before continuing.
>  <Compound>
O=C(CCCN1C(=O)/C(=C/c2ccccc2Cl)SC1=S)NNC(=O)c1ccc(Cl)cc1Cl

>  <inhibition>
32.6% (active)

$$$$
>  <Compound>
COc1ccc(-n2nc(C(=O)NCC(=O)NCC3COc4ccccc4O3)c3ccccc3c2=O)cc1OC (configuration not stated)

>  <inhibition>
-7.63% (inactive)

$$$$
>  <Compound>
OCCN1CCN(C(=S)c2ccc(-c3ccccc3)cc2)CC1

>  <inhibition>
4.96% (inactive)

$$$$
>  <Compound>
Cc1cc(Sc2nnc(/N=C/N(C)C)s2)c2ccccc2n1

>  <inhibition>
40.5% (active)

$$$$
>  <Compound>
Oc1ccc(Nc2ncnc3scc(-c4ccccc4)c23)cc1

>  <inhibition>
35.8% (active)

$$$$
>  <Compound>
Cc1c(-c2ccccc2)oc2c(C(=O)N3CCN(c4ccc([N+](=O)[O-])cc4)CC3)cccc2c1=O

>  <inhibition>
32.5% (active)

$$$$
>  <Compound>
COc1ccc(-c2cn[nH]c2C)cc1OC

>  <inhibition>
10.4% (inactive)

$$$$
>  <Compound>
CC(C)OC(=O)c1sc2nc(-c3ccccc3)ccc2c1N

>  <inhibition>
-2.61% (inactive)

$$$$

Look at each compound and report its inhibition.
1. CC1=C(C(=O)OCc2ccc3c(c2)OCO3)C(c2cccc([N+](=O)[O-])c2)NC(=O)N1 (configuration not stated)
2. Cc1c(C)c2cccnc2c2ncccc12
3. COCCn1c(C)cc(C2=NNC(=NC3CC3)SC2)c1C
4. COc1ccc(-c2c[n+]3c(n2-c2ccccc2)CCCCC3)cc1

**A:**
1. 42.2% (active)
2. 65.7% (active)
3. 87.2% (active)
4. 39.6% (active)

Look at each compound and report its inhibition.
1. CC(C)(C)NC(=O)C(c1ccncc1)N(Cc1cccs1)C(=O)Cn1nnc(-c2ccc(F)cc2)n1 (configuration not stated)
2. NC(=S)Nc1cc(Cl)cc(Cl)c1
3. NC(=O)C(C(=O)/C=C/c1ccc(Cl)cc1)=C1SCCS1
4. CCN(C(=O)COC(=O)/C(=C/c1ccccc1)n1nnnc1C)C1CCCCC1
5. CC(C)(C)OC(=O)NCCCCCc1cn([C@@H](CO)C(=O)NCCCCCCCCCCC(=O)N2CCN(C(=O)OC(C)(C)C)CC2)nn1
6. Cc1cccc(NC(=O)c2cc(Cl)ccc2[N+](=O)[O-])c1
7. Cc1nc(SCC(=O)Nc2nc3ccccc3s2)c(C#N)c(C)c1C
8. O=C(Nc1ccc(OC(F)(F)F)cc1)Nc1cccc([N+](=O)[O-])c1

**A:**
1. 35% (active)
2. 20.4% (inactive)
3. 36.6% (active)
4. 27% (inactive)
5. 66.8% (active)
6. 27% (inactive)
7. 88.5% (active)
8. 1.65% (inactive)

Look at each compound and report its inhibition.
1. CCN(CC)c1ccc(C(NC(=O)C(C)C)c2ccc3cccnc3c2O)cc1 (configuration not stated)
2. Cn1nnnc1Sc1ncnc2scc(-c3ccccc3)c12

**A:**
56% (active)
2.99% (inactive)

Data credit: PubChem BioAssay
